system: SK-MEL-5; test: NCI tumour cell line growth inhibition, 48 h
Activity calls are given as the source filed them. No stated cut-off is given here; in the data, active = GI50 up to about 1.1 µM and inactive = higher.
experimental.readout: GI50

// solved cases for GI50 follow
query: Identify measured GI50 associated with COc1ccc(C=O)c(NC(=O)C(C)C)c1
result: > 10 µM (inactive)

query: Give recorded GI50. COC(=O)/C=C1\CCC2[C@@H](C(=O)CC3[C@]2(C)CCC[C@@]3(C)C(=O)OC)C1C (stereo not given in full)
result: 13.5 µM (inactive)

query: Given the compound O=C(OC12CC3CC(CC(C3)C1)C2)c1ccc(NCc2cc(O)ccc2O)cc1 , write its reported GI50.
result: 1.24 µM (inactive)

query: Report GI50 for COc1ccc(NC(=S)N/N=C/c2cccc(C)n2)cc1
result: 3.95 µM (inactive)

query: Give reported GI50 value for C=C1C(=O)O[C@H]2C[C@@]3(COC(C)=O)C=COC=C(COC(=O)C(C)C)C3CC12 (stereo not given in full)
result: > 100 µM (inactive)

query: Given CSc1nc(C)c(CCOC(C)=O)c(Cl)n1 , respond with its GI50.
result: > 100 µM (inactive)

Give me GI50 for each of these compounds, listed below.
1. COc1ccc(NCC#N)cc1
2. O=C1/C(=C/c2ccc(Cl)cc2)Oc2ccccc21
3. O=C1COCCN1C(=O)c1ccccc1Cl
4. Cc1c(-c2ccccc2)c(C#N)c2nnc(C(N)=O)c(N)n12
5. C/C=C1/CC(C)C(C)(O)C(=O)OCC2C(O)CN3CCC(OC1=O)C23 (stereo not given)
6. C/N=c1\ss/c(=N\C(=S)N(C)C)n1-c1ccccc1
7. Cc1nc2sc3cccc(Cl)c3n2c(=O)c1/N=N/c1ccc(Cl)cc1
8. COC(=O)CCC(NC(=S)N/N=C/c1ccco1)C(=O)OC (stereo not given)

result:
["> 100 µM (inactive)", "20.4 µM (inactive)", "> 100 µM (inactive)", "> 100 µM (inactive)", "> 100 µM (inactive)", "> 20.7 µM (inactive)", "68.2 µM (inactive)", "> 100 µM (inactive)"]

Batch lookup, GI50 per entry.
1. CC1S(=O)(=O)OCCOS1(=O)=O
2. C=C1CCC2CC1[C@@H](C(=O)c1c[nH]c3ccccc13)NC2(C)C (stereo not given in full)
3. c1ccc(N2CCN(CCN3CCc4c([nH]c5ccccc45)C3c3cccnc3)CC2)cc1 (stereo not given)
4. CCOc1cc(/C=C2/C(C)=NN(c3cccc(Cl)c3)/C2=N/c2nc3ccccc3s2)ccc1O
5. COC(=O)c1c(C(=O)OC)c2ccccn2c1-c1cc(OC)c(Br)c(=O)o1

result:
["50.1 µM (inactive)", "> 37.5 µM (inactive)", "> 100 µM (inactive)", "17.8 µM (inactive)", "> 100 µM (inactive)"]

Provide each entry's GI50 from the list below.
1. CC1=NN(c2nc(N)nc(CS(C)(=O)=O)n2)C(C)(C)C1
2. O=C(/C=C/c1ccc2c(c1)OCO2)c1ccc(O)cc1
3. COC(=O)C(Cc1c[nH]c2ccccc12)NC1=Nc2ccncc2S(=O)(=O)N1c1ccccc1 (stereo not given)
4. FC(F)(F)c1nc(-c2ccccc2)oc1Sc1oc(-c2ccccc2)nc1C(F)(F)F
5. CC(C)Cc1cccc(C(C)C)c1NC(=O)CCC(=O)N/N=C1\C(=N/NC(=O)CCC(=O)Nc2c(C(C)C)cccc2C(C)C)C(c2ccc3c(c2)OCO3)Oc2ccccc21 (stereo not given)
6. CNc1ncnc2c1nnn2C

result:
1. > 100 µM (inactive)
2. 15.6 µM (inactive)
3. 16 µM (inactive)
4. > 100 µM (inactive)
5. > 100 µM (inactive)
6. > 100 µM (inactive)

Required: GI50, one value per compound below.
1. CC(=O)OCCOCNC(=S)N/N=C(\C)c1cnc2ccccc2n1
2. CC(C)(C)OC(=O)NCCc1ccc(N)cc1
3. CS/C(=C(\S)c1ccccc1)c1ccccc1
4. O=c1cc2ccccc2nn1Cc1ccccc1Cl
5. Nc1ccccc1.O=P(O)(O)c1ccccc1
6. O=C(O)C(Cc1ccc2c(c1)CCC2)(Cc1ccc2c(c1)CCC2)C(=O)O
7. O=C(O)C(Cl)(Cl)Cl
8. O=C(O)c1cc(O)nc(S)n1

result:
1: 25.1 µM (inactive); 2: 33 µM (inactive); 3: > 100 µM (inactive); 4: > 100 µM (inactive); 5: > 100 µM (inactive); 6: > 100 µM (inactive); 7: > 100 µM (inactive); 8: > 100 µM (inactive)

For every item below, please supply its GI50.
1. CC(=O)OC(OC(C)=O)c1ccc2ccc3cccc4ccc1c2c34
2. CC(N)(/C=C/c1ccccc1)C(=O)O (stereo not given)
3. COc1ccc2c(c1)[n+]([O-])c(C(=O)CC(=O)C(=O)Nc1cccc(Cl)c1C)c(C)[n+]2[O-]

result:
1: 18.2 µM (inactive); 2: > 100 µM (inactive); 3: > 100 µM (inactive)

Give me GI50 for each of these compounds, listed below.
1. CCCn1c(=O)c2ccccc2[n+]2c(-c3ccc([N+](=O)[O-])cc3)csc12
2. COc1cccc(C2c3cc4c(cc3OC(C)(O)C2C)OCO4)c1O (stereo not given)
3. CC(=O)OCC(=O)[C@@]1(O)CC[C@H]2[C@@H]3CCC4=CC(=O)[C@H](C)C[C@]4(C)[C@H]3[C@@H](O)C[C@@]21C
4. Cc1ccc2c(c1)C(c1cccc3ccccc13)OC2=O (stereo not given)
5. COc1ccc2c(c1)NC1(O)c3ccccc3C(=O)C21O (stereo not given)
6. C/C(=N/NC(N)=S)C(CN1CCOCC1)C(C1=C(O)c2ccccc2OC1)c1ccccc1 (stereo not given)
7. O=C1Nc2ccccc2/C1=C1/Nc2ccccc2/C1=N/OCCOCCO

result:
1: 18.6 µM (inactive); 2: 2.84 µM (inactive); 3: > 100 µM (inactive); 4: 31.4 µM (inactive); 5: > 100 µM (inactive); 6: > 100 µM (inactive); 7: 1.57 µM (inactive)

Batch of 2 compounds: report GI50 for each.
1. CC(=O)OC1=c2ccccc2=C(O)C2C1C=NN2C(C)=O (stereo not given)
2. CC(C)C(=O)CP(=O)(O)O

result:
["> 100 µM (inactive)", "> 100 µM (inactive)"]
